Values were extracted from patent US20100137421A1.

- Test system: HL-60 promyelocytic leukemia cell line
- assay method text: 3H-thymidine incorporation assay, HL-60
- Format: cell-based
- condition info: Homo sapiens; HL-60, 48 h incubation, 3H-thymidine pulse 6 h; read-out: IC50, inhibition of cell proliferation, HL-60
pIC50: −log10 of the molar value.
Recorded pIC50, one value per entry.

{"molecule": "CC(C)=CCC[C@]1(C)C=Cc2c(O)c3c(c(CC=C(C)C)c2O1)O[C@]12C(=C[C@@H]4C[C@H]1C(C)(C)O[C@@]2(C/C=C(/C)C(=O)O)C4=O)C3=O", "experimental target": "HL-60 promyelocytic leukemia cell line", "pIC50": 6.52}
{"molecule": "CC(C)=CCC12OC(C)(C)C3CC(C=C4C(=O)c5ccccc5OC431)C2=O (stereo not drawn)", "experimental target": "HL-60 promyelocytic leukemia cell line", "pIC50": 5.82}
{"molecule": "CC(C)=CCCC1(C)C=Cc2c(O)c3c(c(CC=C(C)C)c2O1)O[C@]12C(=CC4C[C@H]1C(C)(C)OC2(CC=C(C)C)C4=O)C3=O (stereo partly drawn)", "experimental target": "HL-60 promyelocytic leukemia cell line", "pIC50": 6.10}
